These measurements were taken from patent US20210395718A1.

experimental-details: Thermal stability: residual activity after incubation at 60° C. for one hour
Type: biochemical
test-context: crude recombinant enzyme; after incubation at 60° C. for 1 hour
measured-metric: Residual activity (%)
Give the quantity in %, number only.

Asked: Dear colleague, I am looking for the recorded Residual activity (%) of the following molecule: Ketose 3-epimerase mutant 14: amino acid-substituted mutant of SEQ ID NO: 1 (protein, Arthrobacter histidinolovorans) MKIGCHGLVWTGRFDAEGIRYSVQKTKEAGFDLIEFPLMDPFSFDVATAKSALAEHGLTASASLGLSEATDVSSEDPAIVKAGEELLNRALDVLAELGATDFCGVIYSAMKKYMEPATEQGLSNSKAAVGRVVDRAAGLGINVSLEVVNRYETNVLNTGRQALSYLSDVKRPNLGVHLDTYHMNIEESDMFSPVLDTAEVLKYVHIGESHRGYLGTGSVDFDNFFKALGRIGYDGPVVFESFSSAVVAPDLSRMLGIWRNLWADNEELGAHANAFIRDKLTAIKTIELH
Given back: 79.1

Asked: Dear colleague, I am looking for the recorded Residual activity (%) of the following molecule: Ketose 3-epimerase mutant 33: amino acid-substituted mutant of SEQ ID NO: 1 (protein, Arthrobacter histidinolovorans) MKIGCHGLVWTGRFDAEGIRYSVQKTKEAGFDLIEFPLMDPFSFDVATAKSALAEHGLSVSASLGLSEATDVSSEDPAIVKAGEELLNRALDVLAELGATEFCGVIYSAMKKYMEPATEQGLSNSKAAVGRVVDRAAGLGINVSLEVVNRYETNVLNTGRQALSYLSDVKRPNLGVHLDTYHMNIEESDMFSPVLDTAEVLKYVHIGESHRGYLGTGNVDFDNFFKALGRIGYDGPVVFESFSSAVVAPDLSRMLGIWRNLWADNEELGAHANAFIRDKLTAIKTIELH
Given back: 91.0

Asked: Dear colleague, I am looking for the recorded Residual activity (%) of the following molecule: Ketose 3-epimerase mutant 10: amino acid-substituted mutant of SEQ ID NO: 1 (protein, Arthrobacter histidinolovorans) MKIGCHGLVWTGRFDAEGIRYSVQKTKEAGFDLIEFPLMDPFSFDVATAKSALAEHGLSVSASLGLSEATDVSSEDPAIVKAGEELLNRALDVLAELGATDFCGVIYSAMKKYMEPATEQGLSNSKAAVGRVVDRAAGLGINVSLEVVNRYETNVLNTGRQALSYLSDVKRPNLGVHLDTYHMNIEESDMFSPVLDTAEALKYVHIGESHRGYLGTGNVDFDNFFKALGRIGYDGPVVFESFSSAVVAPDLSRMLGIWRNLWADNEELGAHANAFIRDKLTAIKTIELH
Given back: 79.5

Asked: Dear colleague, I am looking for the recorded Residual activity (%) of the following molecule: Ketose 3-epimerase mutant 20: amino acid-substituted mutant of SEQ ID NO: 1 (protein, Arthrobacter histidinolovorans) MKIGCHGLVWTGRFDAEGIRYSVQKTKEAGFDLIEFPLMDPFSFDVATAKSALAEHGLSVSASLGLSEATDVSSEDPAIVKAGEELLNRALDVLAELGATDFCGVIYSAMKKYMEPATEQGLSNSKAAIGRVVDRAAGLGINVSLEVVNRYETNVLNTGRQALSYLSDVKRPNLGVHLDTYHMNIEESDMFSPVLDTAEALKYVHIGESHRGYLGTGSVDFDNFFKALGRIGYDGPVVFESFSSAVVAPDLSRMLGIWRNLWADNEELGAHANAFIRDKLTAIKTIELH
Given back: 52.1
